These records show pKd for Rv0158 (Mycobacterium tuberculosis, UniProt O53641).
By convention, pKd is the negative base-10 log of a molar concentration.

Please review the entries below; each comes with its answer.
- COMPOUND: "CCCCCCCCCCCCCCCCCC(=O)SCCNC(=O)CCNC(=O)[C@H](O)C(C)(C)COP(=O)(O)OP(=O)(O)OC[C@H]1O[C@@H](n2cnc3c(N)ncnc32)[C@H](O)[C@@H]1OP(=O)(O)O"
  pKd: 5.55
- COMPOUND: "CCCCCCCCCCCCCCCC(=O)SCCNC(=O)CCNC(=O)[C@H](O)C(C)(C)COP(=O)(O)OP(=O)(O)OC[C@H]1O[C@@H](n2cnc3c(N)ncnc32)[C@H](O)[C@@H]1OP(=O)(O)O"
  pKd: 5.74
- COMPOUND: "CCCCCCCCCC(=O)SCCNC(=O)CCNC(=O)[C@H](O)C(C)(C)COP(=O)(O)OP(=O)(O)OC[C@H]1O[C@@H](n2cnc3c(N)ncnc32)[C@H](O)[C@@H]1OP(=O)(O)O"
  pKd: 5.19
- COMPOUND: "CCCCCCCCCCCC(=O)SCCNC(=O)CCNC(=O)[C@H](O)C(C)(C)COP(=O)(O)OP(=O)(O)OC[C@H]1O[C@@H](n2cnc3c(N)ncnc32)[C@H](O)[C@@H]1OP(=O)(O)O"
  pKd: 5.96
- COMPOUND: "CC(C)(COP(=O)(O)OP(=O)(O)OC[C@H]1O[C@@H](n2cnc3c(N)ncnc32)[C@H](O)[C@@H]1OP(=O)(O)O)[C@@H](O)C(=O)NCCC(=O)NCCSC(=O)CC(=O)O"
  pKd: 5.62

--- query ---
Exam item: Note down pKd recorded for CC(C(=O)O)C(=O)SCCNC(=O)CCNC(=O)[C@H](O)C(C)(C)COP(=O)(O)OP(=O)(O)OC[C@H]1O[C@@H](n2cnc3c(N)ncnc32)[C@H](O)[C@@H]1OP(=O)(O)O (stereo partly drawn)
Marked response: 6.05
